Source: PubChem BioAssay (NCI)

System: OVCAR-8 ovarian
Measurement notes: NCI-60 one-dose screen, 48 h (100 = growth as untreated, 0 = no growth, -100 = all killed)
Conditions: 10 µM unless noted
This is part of a sample that, as a whole, favours compounds with a hit. Of some 83,000 tested, about 20% had one in any assay. The source made the active and inactive calls. How the source made its calls: active means growth percent below 10; inactive means the rest.
Reported property: growth

Recorded results for 5 molecules are shown here.
Query smiles: O=C1C(Cl)=C(Nc2ccccc2)C(=O)C(Cl)=C1Nc1ccccc1
Reported property: growth
Experimental value: 103% (inactive)

Query smiles: COC(=O)c1oc2c(C(C)=O)c(OCCN3CCCCC3)ccc2c1C
Reported property: growth
Experimental value: 107% (inactive)

Query smiles: Cc1ncc(CO)c(C(=O)O)c1O
Reported property: growth
Experimental value: 104% (inactive)

Query smiles: NC(=S)NNC1CCCCC1
Reported property: growth
Experimental value: 91.2% (inactive)

Query smiles: O=C1c2ccccc2OC=C(c2ccccc2)N1CCCCN1CCCCC1
Reported property: growth
Experimental value: 51.7% (inactive)

Query string: GET /values?readout=growth&item= "COc1cccc(-c2nc3sccn3c2-c2ccnc(NCCNC(=O)Nc3cccc(C(F)(F)F)c3)n2)c1"
Result string: 21.3% (inactive)

Query string: GET /values?readout=growth&item= "COc1ccc(-c2nn(-c3ccc(NC(=O)Nc4cc(C(F)(F)F)cc(C(F)(F)F)c4)cc3)cc2-c2ccncc2)cc1Cl"
Result string: 12.9% (inactive)

* * *

Parameter: growth. Scope: all listed entries.
Test system: SK-MEL-2 melanoma
Measurement notes: NCI-60 one-dose screen, 48 h (100 = growth as untreated, 0 = no growth, -100 = all killed)
Conditions: 10 µM unless noted
The panel holds about 83,000 compounds, 20% with a hit somewhere; the sample as a whole holds those more often.
Note: unit % is implicit; provide only the numeric part.

Recorded results for 3 compounds are shown here.
Compound: O=C(COc1ccc(Cl)cc1Cl)N1N=C(c2ccc(Cl)cc2Cl)CC1(O)c1cc(F)c(Cl)cc1Cl (stereo unspecified)
Experimental value: 95.3
//
Compound: O=C(CSc1nnc(-c2cc3c([nH]c4ccccc43)c(-c3cccc(O)c3)n2)n1-c1ccccc1)c1ccccc1
Experimental value: 65.7
//
Compound: COc1ccc(C2=NN(C(=O)COc3ccc(Cl)cc3)C(O)(c3cc(F)c(Cl)cc3Cl)C2)cc1OC (stereo unspecified)
Experimental value: 68.3

Query string: GET /values?readout=growth&item= O=C(c1cc(-c2ccc(Cl)cc2)nc2ccccc12)N1N=C(c2ccccc2)CC1c1cc(-c2ccccc2)nn1-c1ccccc1 (stereo unspecified)
Result string: 86.4

Query string: GET /values?readout=growth&item= CC1OC(n2c3ccccc3c3c4c(c5c6ccccc6[nH]c5c32)C(=O)N(CCN[C@@H]2CCC[C@H]2N)C4=O)CC(O)C1O (stereo partly specified)
Result string: 47.1

Query string: GET /values?readout=growth&item= "COc1cc(-c2nc3ccccc3s2)ccc1OCc1nc2n(n1)S(=O)(=O)c1ccccc1N2C"
Result string: 85.9

Query string: GET /values?readout=growth&item= "C[C@]12O[C@H]1[C@H](O)c1c(cc(O)c3c1C(=O)c1cccc(O)c1-3)C2=O"
Result string: 99.3

Query string: GET /values?readout=growth&item= "Fc1ccc(/C=N/n2c(-c3cc(Cl)cc(Cl)c3Cl)nn(CNc3ccc(Cl)nn3)c2=S)cc1"
Result string: 98.1

Query string: GET /values?readout=growth&item= "CCNc1cc(S(=O)(=O)O)ccc1C"
Result string: 100

Query string: GET /values?readout=growth&item= "O=C1OC(c2ccc(-c3ccccc3)cc2)=C/C1=C/C=C/c1ccccc1"
Result string: 114

* * *

System: SF-295 CNS
Measurement notes: NCI-60 one-dose screen, 48 h (100 = growth as untreated, 0 = no growth, -100 = all killed)
Conditions: 10 µM unless noted
This is part of a sample that, as a whole, favours compounds with a hit. Of some 83,000 tested, about 20% had one in any assay.
Sorting guide: entries reporting growth beneath 20% go in the y pile, the rest go in the n pile.

Query string: Confirm or reject: growth of "Cc1cccc(CC(=O)c2ccccc2)n1" lies strictly below 20%
Result string: n

Query string: Confirm or reject: growth of "O=C(Nc1ccc(-n2ccc3c(NC(=O)c4ccccc4)ncnc32)cc1)Nc1ccc(Cl)c(C(F)(F)F)c1" lies strictly below 20%
Result string: y

Query string: Confirm or reject: growth of "O=S1(=O)N(CCNc2nccc(-c3c(-c4cccc(O)c4)nc4sccn34)n2)CCN1Cc1ccccc1" lies strictly below 20%
Result string: n

Query string: Confirm or reject: growth of "CNCCCOc1c(Br)cc(CCNC(=O)/C(Cc2cc(Br)c(OC)c(Br)c2)=N/O)cc1Br" lies strictly below 20%
Result string: y

Query string: Confirm or reject: growth of "Cc1c(Cl)ccc2c(C(=O)Cl)cc(-c3ccccc3)nc12" lies strictly below 20%
Result string: n

* * *

Tested on: ACHN renal
Measurement notes: NCI-60 one-dose screen, 48 h (100 = growth as untreated, 0 = no growth, -100 = all killed)
Conditions: 10 µM unless noted
The panel holds about 83,000 compounds, 20% with a hit somewhere; the sample as a whole holds those more often.
Note to self: class = bucket of growth, per c1 (below 70%), c2 (70% to below 90%), c3 (90% or more)

Some entries whose results are on file:
Compound: CCOc1cccc(Nc2nc(N)nc3[nH]c4ccc(O)cc4c23)c1
Classification: c1

Compound: CC(C)(C)OC(=O)N1CC(Cn2cc(C(F)(F)F)c3c(Cl)ncnc32)C1
Classification: c2

Compound: CC(C(C(=O)N1CCCCC1)N1CCCCC1)N1CCCCC1 (centres undefined)
Classification: c3

Query string: Could you place "Nc1nc(Cl)c2c(C(F)(F)F)cn(CC3CCNCC3)c2n1" in its proper category? Many thanks.
Result string: c3

Query string: Could you place "COc1ccc2c(c1)/C(=C/c1c(-c3cc(OC)c(OC)c(OC)c3Br)nc3sccn13)C(=O)N2" in its proper category? Many thanks.
Result string: c2

* * *

System: DU-145 prostate
Measurement notes: NCI-60 one-dose screen, 48 h (100 = growth as untreated, 0 = no growth, -100 = all killed)
Conditions: 10 µM unless noted
This is part of a sample that, as a whole, favours compounds with a hit. Of some 83,000 tested, about 20% had one in any assay.
Reported property: growth (%)
Note: unit % is implicit; provide only the numeric part.

Recorded results for 4 compounds are shown here.
Compound: Cc1ccc(=O)n(-c2ccc(Br)cc2F)c1
growth / %: 109
--
Compound: COC(=O)/C=C/C(=O)c1cc(C)cc(C)c1O
growth / %: 103
--
Compound: O=C(C[n+]1cccc(Br)c1)c1ccc2c(c1)CCCC2
growth / %: 110
--
Compound: CCNc1ncnc2n[nH]nc12
growth / %: 104

Query string: GET /values?readout=growth&item= "COc1cc(-c2nc(N)n(CC(=O)Nc3ccc(/C(C)=N\O)cc3)n2)cc(OC)c1OC"
Result string: 108

Query string: GET /values?readout=growth&item= CCC1S/C(=N\N=C(/C)c2cc3ccccc3o2)N(c2ccccc2)C1=O (centres undefined)
Result string: 161

Query string: GET /values?readout=growth&item= O=S(c1ccccc1)c1ccc2nnnn2n1 (centres undefined)
Result string: 105

Query string: GET /values?readout=growth&item= "CN1CCN(C(=O)/C=C/c2ccc([N+](=O)[O-])o2)CC1"
Result string: 92.6

Query string: GET /values?readout=growth&item= "COc1ccc(-c2ccc(NC(=O)Nc3ccc(Cl)c(C(F)(F)F)c3)c(C)n2)cc1"
Result string: 54.5

* * *

Test system: BT-549 breast
Measurement notes: NCI-60 one-dose screen, 48 h
Conditions: 10 µM unless noted
Compounds without any hit were thinned out: in the full panel of roughly 83,000, 20% have a hit. Active and inactive are the calls of the source. How the source made its calls: active means growth percent below 10; inactive means the rest.
Thanks in advance; please answer with one of these: Y = active, N = inactive

Compound: Cc1cccc(NC(=O)CCc2ccc(N3C(N)=NC(N)=NC3(C)C)cc2)c1
Classification: N

Compound: Nc1nc(Cl)cc(NCc2ccc(CNc3cc(Cl)nc(N)n3)cc2)n1
Classification: N

Compound: COc1ccc2c(c1)O/C(=C/c1ccc(OCC(=O)Nc3ccc(S(N)(=O)=O)cc3)cc1)C2=O
Classification: N

Query string: Answer briefly: the call reported for "COC(=O)c1ccc(NC(N)=NCC(C)(C)COc2ccc(C(F)(F)F)cc2)nc1" in this assay.
Result string: N

Query string: Answer briefly: the call reported for N#Cc1c2c(c(N)[nH]c1=O)C(=O)NC2(O)c1ccccc1 (stereo unspecified) in this assay.
Result string: N

Query string: Answer briefly: the call reported for N#Cc1c(N)nc2c(c1N)C(c1ccc(Cl)cc1)C1=C(CCCC1=O)N2c1sc2c(c1C#N)CCCC2 (stereo unspecified) in this assay.
Result string: N

Query string: Answer briefly: the call reported for "CCc1c(C)c2cc3c(c(C)c2oc1=O)OCC(=O)N3" in this assay.
Result string: N

Query string: Answer briefly: the call reported for "O=C(Nc1cccc(-n2ccc3c(NC(=O)c4ccccc4)nccc32)c1)Nc1cc(C(F)(F)F)cc(C(F)(F)F)c1" in this assay.
Result string: Y
